B1: library; numbered along this chain (parent)
chain: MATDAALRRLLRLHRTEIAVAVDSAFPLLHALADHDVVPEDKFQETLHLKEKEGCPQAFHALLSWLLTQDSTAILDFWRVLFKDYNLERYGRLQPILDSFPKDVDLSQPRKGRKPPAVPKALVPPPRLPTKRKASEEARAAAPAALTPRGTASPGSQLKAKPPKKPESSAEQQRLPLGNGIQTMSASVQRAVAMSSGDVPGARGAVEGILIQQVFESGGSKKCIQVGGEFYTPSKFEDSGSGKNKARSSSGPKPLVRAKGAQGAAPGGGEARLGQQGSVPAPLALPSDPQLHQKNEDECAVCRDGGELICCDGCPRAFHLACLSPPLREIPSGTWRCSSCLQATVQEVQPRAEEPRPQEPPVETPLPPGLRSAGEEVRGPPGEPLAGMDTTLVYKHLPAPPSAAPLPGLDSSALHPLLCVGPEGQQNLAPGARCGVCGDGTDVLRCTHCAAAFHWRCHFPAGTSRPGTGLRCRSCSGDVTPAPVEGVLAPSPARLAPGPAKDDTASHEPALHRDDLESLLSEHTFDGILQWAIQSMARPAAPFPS

variants of: B1; assay: AIRE transcriptional activation functional score (insulin promoter-GFP; nonsense median 0, synonymous median 1) (normalised score); higher = higher AIRE activity (more reporter activation); settings: with insulin promoter-GFP reporter in HEK293
AIRE transcriptional activation functional score below 0.7 gives class 0; AIRE transcriptional activation functional score at or above it gives class 1.

{"variant label": "A205C", "assigned category": "class 1"}

In: AIRE transcriptional activation functional score >= 0.7 for `T232I` ?
Out: class 1

In: Check the entry `E423T` : does AIRE transcriptional activation functional score equal or exceed 0.7?
Out: class 1

In: Reported AIRE transcriptional activation functional score reaches at least 0.7 for `S474C` ?
Out: class 1

In: Is AIRE transcriptional activation functional score for `R8N` at or above 0.7?
Out: class 0

In: Entry `T232G` : is its AIRE transcriptional activation functional score no less than 0.7?
Out: class 1

In: API: above_or_equal(metric=AIRE transcriptional activation functional score, cutoff=0.7) for item `H523S`
Out: class 1

In: Please indicate if the recorded AIRE transcriptional activation functional score for `S239K` meets or exceeds 0.7.
Out: class 0

In: Does AIRE transcriptional activation functional score meet or surpass 0.7 for `P39Y` ?
Out: class 0

In: Entry `V420K` : is its AIRE transcriptional activation functional score no less than 0.7?
Out: class 0

In: Check if AIRE transcriptional activation functional score >= 0.7 (inclusive). Item: `R316P`
Out: class 1
